# assay_summary: chemical genetic growth profiling, strain panel (AID 1159580);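 further: tested at 20 µM; growth read once vehicle control cultures reached saturation at 30 °C; 1 = growth at the plate median or of vehicle wells; lower values mean less growth of the strain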
# experimental_conditions: S. cerevisiae deletion strains, growth OD, locus YCR088W, strain abp1, hits give low values
The campaign covered roughly 5,500 compounds. About 2,000 (36%) were called active. Inconclusive results (about 18%) are left out. The list shows a part of the results.
observation_type: normalized growth
Answer with a bare number; do not write a unit.

molecule: CCN(CC)CCCC(C)Nc1c2ccc(Cl)cc2nc2ccc(OC)cc12 (configuration not stated)
normalized growth: 1.03

Query: Requested field: normalized growth. Item: COc1ccc2c(c1OC)C(=O)O[C@@H]2[C@H]1c2cc3c(cc2CCN1C)OCO3
Response: 0.997

Query: Same read-out for CC(C[N+](C)(C)C)OC(N)=O (configuration not stated) ?
Response: 1.03

Query: Same read-out for Oc1cc(Cl)ccc1Oc1ccc(Cl)cc1Cl ?
Response: 0.0589

Query: Same read-out for CCOC(=O)[C@H](CCc1ccccc1)N[C@H]1CCc2ccccc2N(CC(=O)O)C1=O ?
Response: 0.975

Query: Same read-out for NC(=O)c1ccc[n+]([C@@H]2O[C@H](COP(=O)([O-])OP(=O)(O)OC[C@H]3O[C@@H](n4cnc5c(N)ncnc54)[C@H](O)[C@@H]3O)[C@@H](O)[C@H]2O)c1 ?
Response: 1.03

Query: Same read-out for CC(N)CCCC(C)(C)O (configuration not stated) ?
Response: 0.973

Query: Same read-out for COc1ccc2c(c1OC)C(=O)O[C@H]2[C@H]1c2cc3c(cc2CCN1C)OCO3 ?
Response: 1.01

Query: Same read-out for CCN(CCO)CCCC(C)Nc1ccnc2cc(Cl)ccc12 (configuration not stated) ?
Response: 0.997

Query: Same read-out for COP(=O)(OC)OC=C(Cl)Cl ?
Response: 1

Query: Same read-out for COC1=CC(=O)C[C@@H](C)[C@]12Oc1c(Cl)c(OC)cc(OC)c1C2=O ?
Response: 0.979

Query: Same read-out for CCN(CC)CCCC(C)Nc1ccnc2cc(Cl)ccc12 (configuration not stated) ?
Response: 1.02
